# system name: indoleamine 2, 3-dioxygenase (IDO1) (Homo sapiens)
# test: IDO1 HeLa RapidFire MS assay (kynurenine detection by mass spectrometry)
# Format: cell-based
# Design: to induce the expression of indoleamine 2, 3-dioxygenase (IDO1)
# reported conditions: HeLa cells, pIC50, read-out: IDO1_HELA_PXC50 (converted)
For each record, check the reported IC50: if it is below 2000 nM write t, else write f.

stdin: Does the reported IC50 of CC(C)CN(CC(C)C)c1ccc(C(C)CC(=O)O)cc1Nc1nc(C2CCOCC2)cs1 (stereo not drawn) [example 138] stay below 2000 nM?
stdout: f

stdin: // query: CC(C)CN(c1ccc([C@H](C)CC(=O)O)cc1Nc1nnc(C(C)C)[nH]1)C1CCOCC1 [example 212]
stdout: t

stdin: // query: CC(C)CN(CC(C)C)c1ccc(C(C)CC(=O)O)cc1Nc1nc(-c2ccncc2)cs1 (stereo not drawn) [example 130]
stdout: t

stdin: // query: COCc1ncc(Nc2cc(C(C)CC(=O)O)ccc2N(CC(C)C)CC(C)C)s1 (stereo not drawn) [example 189]
stdout: t

stdin: // query: CC(C)CN(c1ccc(-c2ccccc2C(=O)NS(C)(=O)=O)cc1Nc1nc(C(F)(F)F)ns1)C1CCCCC1 [example 282]
stdout: t

stdin: // query: COCCN(c1ccc(-c2ccccc2C(=O)O)cc1Nc1nc2ccccc2[nH]1)C1CCCCC1 [example 285]
stdout: t

---

# system name: indoleamine 2, 3-dioxygenase (IDO1) (Homo sapiens, UniProt P14902)
# Sequence (P14902 whole entry): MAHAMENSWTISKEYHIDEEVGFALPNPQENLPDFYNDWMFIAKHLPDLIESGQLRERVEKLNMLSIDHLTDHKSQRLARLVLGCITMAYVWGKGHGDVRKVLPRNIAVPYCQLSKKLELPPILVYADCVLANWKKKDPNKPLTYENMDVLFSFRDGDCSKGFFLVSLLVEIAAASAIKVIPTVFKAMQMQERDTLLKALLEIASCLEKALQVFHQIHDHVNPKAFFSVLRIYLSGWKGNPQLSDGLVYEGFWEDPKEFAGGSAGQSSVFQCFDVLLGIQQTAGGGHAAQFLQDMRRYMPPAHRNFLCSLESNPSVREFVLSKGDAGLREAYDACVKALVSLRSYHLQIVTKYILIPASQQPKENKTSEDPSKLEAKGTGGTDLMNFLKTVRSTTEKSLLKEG
# test: IDO1 HeLa RapidFire MS assay (kynurenine detection by mass spectrometry)
# Assay type: cell-based
# Parameters: to induce the expression of indoleamine 2, 3-dioxygenase (IDO1)
# reported conditions: HeLa cells, pIC50, read-out: IDO1_HELA_PXC50 (converted)
# Method: IDO1 HeLa RapidFire MS Assay Compounds of the present invention were tested via high-throughput cellular assays utilizing detection of kynurenine via mass spectrometry and cytotoxicity as end-points. […] Cellular toxicity due to the effect of compound treatment was measured using CellTiter-Glo® reagent (CTG) (Promega Corporation, Madison, Wis.), which is based on luminescent detection of ATP, an indicator of metabolically active cells. […]
For each record, check the reported IC50: if it is below 30 nM write condition met, else write condition not met.

stdin: Does the reported IC50 of CC(C)CN(c1ccc([C@H](C)CC(=O)O)cc1Nc1cnc(C(F)(F)F)nc1)C1CCOCC1 stay below 30 nM?
stdout: condition met

stdin: // query: CC(C)CN(CC(C)C)c1ccc(-c2ccccc2C(=O)O)cc1Nc1ccn(C)n1
stdout: condition not met

stdin: // query: COCc1ccc(Nc2cc(C(C)CC(=O)O)ccc2N(CC(C)C)CC(C)C)nc1 (stereo not shown)
stdout: condition not met

stdin: // query: COCCc1nnc(Nc2cc([C@H](C)CC(=O)O)ccc2N(CC(C)C)C2CCCCC2)[nH]1
stdout: condition met

stdin: // query: CC(C)CN(CC(C)C)c1ccc(C(C)CC(=O)O)cc1Nc1nc(C(C)(C)C)cs1 (stereo not shown)
stdout: condition not met

stdin: // query: CC(C)CN(c1ccc(-c2ccccc2C(=O)O)cc1Nc1nc(C(F)(F)F)ns1)C1CCN(CCO)CC1
stdout: condition not met

stdin: // query: CC(C)CN(c1ccc(-c2ccccc2C(=O)O)cc1Nc1nc(C(F)(F)F)ns1)C1CCN(c2nc(C(F)(F)F)ns2)CC1
stdout: condition met

stdin: // query: CC(C)CN(c1ccc([C@H](C)Cc2nnn[nH]2)cc1Nc1nc(Cl)ns1)C1CCCCC1
stdout: condition met

stdin: // query: CC(C)CN(c1ccc(C(C)CC(=O)O)cc1NC1=N[C@@H](C(F)(F)F)CS1)C1CCCCC1 (stereo partly shown)
stdout: condition not met

stdin: // query: CC(C)CN(c1ccc([C@H](C)CC(=O)O)cc1Nc1ccc(Cl)nc1)[C@H]1CC[C@H](O)CC1
stdout: condition met

stdin: // query: CC(C)CN(CC(C)C)c1ccc([C@H](C)CC(=O)O)cc1Nc1nnc(C(F)(F)F)s1
stdout: condition met

stdin: // query: CC(C)CN(c1ccc([C@H](C)CC(=O)O)cc1Nc1ccc(C(F)(F)F)cn1)C1CCCCC1
stdout: condition met

stdin: // query: CC(C)CN(c1ccc(C(C)(C)CC(=O)O)cc1Nc1nc(Cl)ns1)C1CCOCC1
stdout: condition met

stdin: // query: CC(C)CN(CC(C)C)c1ccc(-c2ccccc2C(=O)O)cc1Nc1nc2ccccc2o1
stdout: condition not met

stdin: // query: CC(C)CN(c1ccc(C(C)OCC(=O)O)cc1Nc1nc2ccccc2[nH]1)C1CCCCC1 (stereo not shown)
stdout: condition met

stdin: // query: CC(C)CN(c1ccc(-c2ccccc2C(=O)O)cc1Nc1nc2ccccc2[nH]1)C1CCOCC1
stdout: condition not met

stdin: // query: CC(C)CN(c1ccc(-c2ncccc2C(=O)O)cc1Nc1nc2ccccc2o1)C1CCCCC1
stdout: condition not met

stdin: // query: CC(C)CN(CC(C)C)c1ccc(C(C)CC(=O)O)cc1Nc1nc(N2CCN(C)CC2)ns1 (stereo not shown)
stdout: condition not met

stdin: // query: CC(C)CN(CC(C)C)c1ccc(C(C)CC(=O)O)cc1Nc1ncccn1 (stereo not shown)
stdout: condition not met

stdin: // query: CO[C@H]1CC[C@H](N(CC(C)C)c2ccc(-c3ccccc3C(=O)O)cc2Nc2nc(C(F)(F)F)ns2)CC1
stdout: condition met

stdin: // query: Cc1nnc(Nc2cc(C(C)CC(=O)O)ccc2N(CC(C)C)CC(C)C)o1.O=C(O)C(F)(F)F (stereo not shown)
stdout: condition not met

stdin: // query: CC(C)CN(CC(C)C)c1ccc(C(C)CC(=O)O)cc1Nc1ccc(NS(C)(=O)=O)cn1 (stereo not shown)
stdout: condition not met

stdin: // query: COCc1nnc(Nc2cc([C@H](C)CC(=O)O)ccc2N(CC(C)C)C2CCCCC2)[nH]1
stdout: condition met

stdin: // query: CC(C)CN(CC(C)C)c1ccc([C@@H]2C[C@@H]2C(=O)O)cc1Nc1nc(C(F)(F)F)ns1 (single isomer, unassigned) [example 206]
stdout: condition not met

stdin: // query: CC(C)CN(c1ccc(C(C)CC(=O)O)cc1Nc1nc(C(F)(F)F)ns1)C1CCOCC1 (stereo not shown)
stdout: condition met

This collection of values is drawn from patent US10899754B2.
